Just for reference, paper PMC5841658 is where these values come from.

# Test system: zebrafish hearing thresholds
# testProtocol: Auditory evoked potential (AEP) testing in zebrafish inner ear model
# Format: in vivo, Danio rerio
# experimentalContext: 3000 Hz, 25 mg/kg i.p., 48 h
endpointLabel: AEP hearing threshold, significance of pairwise comparison against vehicle

compound	experimentalValue
[NH3+][Pt-2]([NH3+])([Cl])[n+]1ccccc1 (stereo not shown)	ns (ns, p > 0.05)
N.N.[Cl][Pt][Cl] [Cisplatin, cisplatin]	ns (ns, p > 0.05)

----------
# Test system: zebrafish hearing thresholds
# testProtocol: Auditory evoked potential (AEP) testing in zebrafish inner ear model
# Type: in vivo, Danio rerio
# experimentalContext: 1000 Hz, 25 mg/kg i.p., 48 h
endpointLabel: AEP hearing threshold, significance of pairwise comparison against vehicle

compound	experimentalValue
N.N.[Cl][Pt][Cl] [Cisplatin, cisplatin]	**** (**** p ≤ 0.0001)
[Cl][Pt-2]12[NH2+]CC[NH+]1CC[NH2+]2 (stereo not shown) [[Pt(dien)Cl]^+, Pt(diethylenetriamine)Cl]	**** (**** p ≤ 0.0001)
CC[N+]1(CC)CC[NH+]2CC[NH2+][Pt-2]21[Cl] (stereo not shown) [[Pt(Et2dien)Cl]^+, Pt(N,N-diethyldiethylenetriamine)Cl]	**** (**** p ≤ 0.0001)
